Cited source: patent US20260200911A1

Documented pIC50 across a set of compounds
Target: human mGlu7 (Homo sapiens)
Construct: expressed in transfected cells
Sequence (Q14831 35-922 isoform Q14831-2 limits assumed): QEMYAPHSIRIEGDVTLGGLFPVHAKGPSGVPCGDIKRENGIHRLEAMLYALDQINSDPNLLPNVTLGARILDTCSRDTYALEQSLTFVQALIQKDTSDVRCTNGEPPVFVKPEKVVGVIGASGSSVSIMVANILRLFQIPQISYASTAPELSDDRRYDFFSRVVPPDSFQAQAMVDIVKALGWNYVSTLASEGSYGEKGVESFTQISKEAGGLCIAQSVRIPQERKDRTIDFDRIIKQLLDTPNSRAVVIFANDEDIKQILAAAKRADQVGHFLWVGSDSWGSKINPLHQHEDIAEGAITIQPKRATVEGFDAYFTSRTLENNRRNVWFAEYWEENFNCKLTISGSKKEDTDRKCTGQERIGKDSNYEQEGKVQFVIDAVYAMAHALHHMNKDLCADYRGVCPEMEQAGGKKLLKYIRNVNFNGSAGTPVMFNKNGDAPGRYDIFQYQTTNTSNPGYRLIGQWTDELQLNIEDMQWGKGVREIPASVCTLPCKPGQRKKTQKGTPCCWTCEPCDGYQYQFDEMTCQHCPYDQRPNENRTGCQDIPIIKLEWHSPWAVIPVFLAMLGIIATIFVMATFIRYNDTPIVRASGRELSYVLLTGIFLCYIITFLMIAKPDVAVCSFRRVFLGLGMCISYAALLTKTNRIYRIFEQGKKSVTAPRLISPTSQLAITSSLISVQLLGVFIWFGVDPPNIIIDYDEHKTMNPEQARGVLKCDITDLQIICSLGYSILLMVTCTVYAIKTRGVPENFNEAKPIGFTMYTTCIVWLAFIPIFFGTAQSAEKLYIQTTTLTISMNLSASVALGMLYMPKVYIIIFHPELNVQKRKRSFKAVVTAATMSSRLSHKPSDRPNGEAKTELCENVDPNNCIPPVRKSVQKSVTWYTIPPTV
Assay: Fluorescent cell based Ca2+ mobilization assay (FLIPR) on HEK-293 cells expressing human mGlu7
Conditions: HEK-293 cells expressing hmGlu7; inhibition of EC80 L-AP4 response; mean of at least three independent experiments in duplicate; read-out: Ca^2+ Flux (mean IC50)
pIC50: −log10 of the molar value.

Reference set, count: 4
INSERT INTO assay_data (compound, test_value) VALUES
  ('Cc1ccc(-c2ccc3nn(-c4ncccn4)c(=O)n3c2)c(C)c1 [Compound 1-2]', '6.00 to 7.00'),
  ('COc1cccc(-c2ccc3nn(-c4ncccn4)c(=O)n3c2)c1C [Compound 1-11]', '6.00 to 7.00'),
  ('Cc1ccc(C2CCc3nn(-c4ccccn4)c(=O)n3C2)c(C)c1 (centres unmarked) [Compound 1-3]', '> 7.00'),
  ('COc1ccccc1-c1ccc2nn(-c3ccccn3)c(=O)n2c1 [Compound 1-19]', '5.00 to 6.00');

Alright, here's another compound for you.
Any idea what pIC50 came out for COc1ccc(C2CCc3nn(-c4ccccn4)c(=O)n3C2)cc1 (centres unmarked) [Compound 1-16] on human mGlu7 (Homo sapiens)?
5.00 to 6.00

* * *

Documented IC50 across a set of molecules
Target: UniProt:Q14831
Assay: Fluorescent cell based Ca2+ mobilization assay (FLIPR) on HEK-293 cells expressing human mGlu7
Conditions: HEK-293 cells expressing hmGlu7; inhibition of EC80 L-AP4 response; mean of at least three independent experiments in duplicate; read-out: Ca^2+ Flux (mean IC50)

Reference set, count: 4
INSERT INTO measurements (molecule, test_value) VALUES
  ('COc1cccc(-c2ccc3nn(-c4ccccn4)c(=O)n3c2)c1C', '< 100 nM'),
  ('Cc1ccc(C2CCc3nn(-c4ccccn4)c(=O)n3C2)c(C)c1 (single isomer, unassigned; (-)) [Compound 1-17]', '1000 to 10000 nM'),
  ('COc1cccc(-c2ccc3nn(-c4ccccn4)c(=O)n3c2)c1', '100 to 1000 nM'),
  ('O=c1n(-c2ncccn2)nc2ccc(-c3cccc(N4CCC4)c3)cn12', '100 to 1000 nM');

Any idea what IC50 came out for COc1cccc(C2CCc3nn(-c4ccccn4)c(=O)n3C2)c1C (centres unmarked) on UniProt:Q14831?
100 to 1000 nM

Any idea what IC50 came out for O=c1n(-c2ccccn2)nc2n1CC(c1cccc(OC3CC3)c1)CC2 (centres unmarked) on UniProt:Q14831?
100 to 1000 nM

Any idea what IC50 came out for COc1ccc(-c2ccc3nn(-c4ccccn4)c(=O)n3c2)c(C)c1 on UniProt:Q14831?
100 to 1000 nM

Any idea what IC50 came out for O=c1n(-c2ccccn2)nc2ccc(-c3cccc(OC4CC4)c3)cn12 on UniProt:Q14831?
100 to 1000 nM

* * *

Biological target: human mGlu7 (Homo sapiens)
Assay: Fluorescent cell based Ca2+ mobilization assay (FLIPR) on HEK-293 cells expressing human mGlu7
Details: HEK-293 cells expressing hmGlu7; inhibition of EC80 L-AP4 response; mean of at least three independent experiments in duplicate; read-out: Ca^2+ Flux (mean IC50)
OBSERVATION_TYPE: IC50

INSERT INTO results (molecule, test_value) VALUES
  ('COc1ccc(-c2ccc3nn(-c4ncccn4)c(=O)n3c2)c(C)c1', '1000 to 10000 nM'),
  ('Cc1ccc(C2CCc3nn(-c4ccccn4)c(=O)n3C2)c(C)c1 (single isomer, unassigned; (+)) [Compound 1-18]', '< 100 nM'),
  ('O=c1n(-c2ncccn2)nc2ccc(-c3cccc(OC4CC4)c3)cn12', '100 to 1000 nM'),
  ('COc1ccc(C2CCc3nn(-c4ccccn4)c(=O)n3C2)c(C)c1 (stereo not drawn)', '100 to 1000 nM'),
  ('Cc1ccc(-c2ccc3nn(-c4ccccn4)c(=O)n3c2)c(C)c1', '< 100 nM'),
  ('O=c1n(-c2ccccn2)nc2ccc(-c3cccc(N4CCC4)c3)cn12', '100 to 1000 nM'),
  ('COc1cccc(-c2ccc3nn(-c4ncccn4)c(=O)n3c2)c1', '1000 to 10000 nM'),
  ('COc1cccc(C2CCc3nn(-c4ccccn4)c(=O)n3C2)c1 (stereo not drawn)', '1000 to 10000 nM');

Alright, here's another molecule for you.
Value lookup for IC50; key = COc1ccc(-c2ccc3nn(-c4ccccn4)c(=O)n3c2)cc1
1000 to 10000 nM
